Test system: CD2F1 mice, ip Colon 26 adenocarcinoma, median survival T/C
Test: NCI In Vivo Anticancer Drug Screen. Data for tumor model Colon 26 Adenocarcinoma (intraperitoneal) in CD2F1 (CDF1) mice
Conditions: endpoint: median survival time; dose: 2.0 mg/kg/injection; schedule: Q04DX003 (ip); vehicle: Klucel (hydroxypropylcellulose) (HPC)
Toxic doses and inconclusive results are not listed. How the source made its calls: active means survival T/C of 150% or more; inactive means T/C below 125% in these data.
Choose the fitting class; nothing outside true for active, false for inactive is accepted.

Some solved entries appear below for comparison.
[
  {
    "COMPOUND": "CC(C)CCCCCCCCCCCCC(=O)NCC(=O)NC1C(O)C(O)C(Nc2ncnc3nc[nH]c23)OC1C(O)CO (centres undefined)",
    "CLASS NAME": "false"
  },
  {
    "COMPOUND": "Nc1ncnc2c1ccn2C1OC(CO)C(O)C1O (centres undefined)",
    "CLASS NAME": "false"
  },
  {
    "COMPOUND": "NC(=O)c1cn(C2OC(CO)C(O)C2O)c2ncnc(N)c12 (centres undefined)",
    "CLASS NAME": "true"
  }
]

Q: Per the assay record, what outcome was assigned to N/C(=N\O)c1cn(C2OC(CO)C(O)C2O)c2ncnc(N)c12 (centres undefined) ?
Result: false
